# Target system: XIAP BIR1/2 (Homo sapiens (Human), UniProt P98170)
# Sequence (P98170 1-240): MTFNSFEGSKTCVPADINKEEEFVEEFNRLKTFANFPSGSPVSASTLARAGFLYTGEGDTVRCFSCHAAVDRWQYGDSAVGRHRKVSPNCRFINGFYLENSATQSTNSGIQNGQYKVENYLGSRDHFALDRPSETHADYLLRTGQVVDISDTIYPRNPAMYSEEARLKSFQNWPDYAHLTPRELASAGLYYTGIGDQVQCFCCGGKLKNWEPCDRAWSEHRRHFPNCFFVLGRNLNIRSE
# Experimental details: XIAP BIR1/2 Ki
# Assay type: binding
# Experimental context: Table B-1
pKi: −log10 of the molar value.
Could you please report measured pKi for the items listed next?

Endpoint output: pKi of CN[C@@H](C)C(=O)N[C@H]1CCO[C@H]2CC[C@@H](C(=O)Nc3cccc4ccccc34)N2C1=O . Value?
≥ 4.60

Endpoint output: pKi of CN[C@@H](C)C(=O)N[C@H]1CCS[C@H]2CCC(C(=O)N[C@@H]3CCCc4ccccc43)N2C1=O (stereo partly shown) . Value?
< 4.30

Endpoint output: pKi of CN[C@@H](C)C(=O)N[C@H]1CCS(=O)(=O)[C@H]2CC[C@@H](C(=O)N[C@@H]3CCCc4ccccc43)N2C1=O . Value?
< 4.30

Endpoint output: pKi of CN[C@@H](C)C(=O)N[C@H]1CCO[C@H]2CC[C@@H](C(=O)N[C@@H]3CCCc4ccccc43)N2C1=O . Value?
< 4.30

Endpoint output: pKi of CN[C@@H](C)C(=O)N[C@H]1CCO[C@H]2CCC(C(=O)N[C@@H]3CCCc4ccccc43)N2C1=O (stereo partly shown) . Value?
< 4.30

Endpoint output: pKi of CN[C@@H](C)C(=O)N[C@H]1CCN[C@H]2CCC(C(=O)N[C@@H]3CCCc4ccccc43)N2C1=O (stereo partly shown) [Compound 28] . Value?
< 4.30

Endpoint output: pKi of CN[C@@H](C)C(=O)N[C@H]1CCO[C@H]2CC(C)(C)C(C(=O)Nc3ccccc3SSc3ccccc3NC(=O)C3N4C(=O)[C@@H](NC(=O)[C@H](C)NC)CCO[C@H]4CC3(C)C)N2C1=O (stereo partly shown) . Value?
≥ 4.60

Endpoint output: pKi of CN[C@@H](C)C(=O)N[C@@H]1C(=O)N2C(C(=O)NC(c3ccccc3)c3ccccc3)CC[C@@H]2O[C@@H]1C (stereo partly shown) . Value?
< 4.30

Endpoint output: pKi of CC(=O)N(C)[C@@H](C)C(=O)N[C@H]1CCCN(C(C)=O)[C@H]2CCC(C(=O)Nc3cccc4ccccc34)N2C1=O (stereo partly shown) . Value?
< 4.30

Endpoint output: pKi of CN[C@@H](C)C(=O)N[C@H]1CCS(=O)(=O)[C@H]2CC[C@H](C(=O)N[C@@H]3CCCc4ccccc43)N2C1=O . Value?
< 4.30

Endpoint output: pKi of CN[C@@H](C)C(=O)N[C@H]1CO[C@H]2CCC(C(=O)Nc3ccc(OC)cc3)N2C1=O (stereo partly shown) . Value?
< 4.30

Endpoint output: pKi of CN[C@@H](C)C(=O)N[C@H]1CCCNC2CCC(C(=O)NC3CCCc4ccccc43)N2C1=O (stereo partly shown) . Value?
4.30 to 4.60

Endpoint output: pKi of CN[C@@H](C)C(=O)N[C@H]1CCO[C@H]2CC3(CCCC3)C(C(=O)N[C@@H]3CCCc4ccccc43)N2C1=O (stereo partly shown) . Value?
≥ 4.60
